Recorded values, source patent US20090253634A1.

assay comment: oral bioavailability in rats, LCMS detection
Format: in vivo
settings: rat, plasma, iv, 10 mg/kg, rats; 10 mg/kg IV; plasma; LCMS; read-out: AUC of SEQ ID NO:3, intravenously administered (converted)
Experimental: Similarly, oral bioavailabity was determined in rats using LCMS methodology. Rat plasma samples containing SEQ ID NO:3 and/or SEQ ID NO:6 were extracted using a Waters Oasis MAX 96 well solid phase extraction (SPE) plate. […] Samples were analyzed by a Waters Quattro Micro mass spectrometer coupled to a Waters 1525 binary pump with a Waters 2777 autosampler. […] SEQ ID NO:6 was detected at all time points for the intravenous dose and was not detected beyond 240 min for the oral dose. […]
Bridge positions count the residues as written; N and C are the ends. Peptide text beside a SMILES is read from it.
experimental readout: AUC

{"columns": ["compound", "experimental readout", "test value"],
 "data": [
  ["C[C@@H]1NC(=O)[C@@H]2CCCN2C(=O)[C@H](CC(N)=O)NC(=O)[C@@H]2CSSC[C@H](N)C(=O)N[C@H]3CSSC[C@H](NC1=O)C(=O)N[C@@H]([C@@H](C)O)C(=O)NCC(=O)N[C@H](C(=O)N[C@@H](Cc1ccc(O)cc1)C(=O)O)CSSC[C@H](NC(=O)[C@H](Cc1ccc(O)cc1)NC(=O)[C@H](CCC(=O)O)NC3=O)C(=O)N2 [SEQ ID NO:3] (H-CCEYCCNPACTGCY-OH; disulfide 1-6, 2-10, 5-13; N-terminus and C-terminus assumed)", "AUC", "12.3 µM·h"]
]}

###

assay comment: oral bioavailability in rats, radioimmunoassay (RIA) detection
settings: female, CD, rat, in vivo, 10 mg/kg oral, read-out: AUCp.o.,(0-6h) (converted)
Bridge positions count the residues as written; N and C are the ends. Peptide text beside a SMILES is read from it.

{"columns": ["compound", "AUC"],
 "data": [
  ["C[C@@H]1NC(=O)[C@@H]2CCCN2C(=O)[C@H](CC(N)=O)NC(=O)[C@@H]2CSSC[C@H](N)C(=O)N[C@H]3CSSC[C@H](NC1=O)C(=O)N[C@@H]([C@@H](C)O)C(=O)NCC(=O)N[C@H](C(=O)N[C@@H](Cc1ccc(O)cc1)C(=O)O)CSSC[C@H](NC(=O)[C@H](Cc1ccc(O)cc1)NC(=O)[C@H](CCC(=O)O)NC3=O)C(=O)N2 [SEQ ID NO:3] (H-CCEYCCNPACTGCY-OH; disulfide 1-6, 2-10, 5-13; N-terminus and C-terminus assumed)", "48.3 ng·h/mL"]
]}

###

assay comment: oral bioavailability in rats, LCMS detection
Type: in vivo
settings: rat, plasma, iv, 10 mg/kg, rats; SEQ ID NO:3 10 mg/kg IV; metabolite; read-out: AUC for SEQ ID NO:6 in SEQ ID NO:3 intravenously dosed rats (converted)
Bridge positions count the residues as written; N and C are the ends. Peptide text beside a SMILES is read from it.

{"columns": ["molecule", "unit abbrev", "AUC"],
 "data": [
  ["C[C@@H]1NC(=O)[C@@H]2CCCN2C(=O)[C@H](CC(N)=O)NC(=O)[C@@H]2CSSC[C@H](N)C(=O)N[C@H]3CSSC[C@H](NC1=O)C(=O)N[C@@H]([C@@H](C)O)C(=O)NCC(=O)N[C@H](C(=O)O)CSSC[C@H](NC(=O)[C@H](Cc1ccc(O)cc1)NC(=O)[C@H](CCC(=O)O)NC3=O)C(=O)N2 [SEQ ID NO:6] (H-CCEYCCNPACTGC-OH; disulfide 1-6, 2-10, 5-13)", "µM·h", 0.0597]
]}
